Assay: total protein half-life in vivo (active degradation + dilution); higher = more stable protein
Details: wild type E. coli NCM3722; growth: C-lim chemostat; doubling time 3 h
total protein half-life in vivo of 3 h or higher: TRUE. Under 3 h: FALSE.

{"sequence": "MSETASWQPSASIPNLLKRAAIMAEIRRFFADRGVLEVETPCMSQATVTDIHLVPFETRFVGPGHSQGMNLWLMTSPEYHMKRLLVAGCGPVFQLCRSFRNEEMGRYHNPEFTMLEWYRPHYDMYRLMNEVDDLLQQVLDCPAAESLSYQQAFLRYLEIDPLSADKTQLREVAAKLDLSNVADTEEDRDTLLQLLFTFGVEPNIGKEKPTFVYHFPASQASLAQISTEDHRVAERFEVYYKGIELANGFHELTDAREQQQRFEQDNRKRAARGLPQHPIDQNLIEALKVGMPDCSGVALGVDRLVMLALGAETLAEVIAFSVDRA [P0A8N7]", "label.class": "FALSE"}
{"sequence": "MVAPIPAKRGRKPAVATAPATGQVQSLTRGLKLLEWIAESNGSVALTELAQQAGLPNSTTHRLLTTMQQQGFVRQVGELGHWAIGAHAFMVGSSFLQSRNLLAIVHPILRNLMEESGETVNMAVLDQSDHEAIIIDQVQCTHLMRMSAPIGGKLPMHASGAGKAFLAQLSEEQVTKLLHRKGLHAYTHATLVSPVHLKEDLAQTRKRGYSFDDEEHALGLRCLAACIFDEHREPFAAISISGPISRITDDRVTEFGAMVIKAAKEVTLAYGGMR", "label.class": "FALSE"}
{"sequence": "MKRLRNKMTTEELAECLGVAKQTVNRWIREKGWKTEKFPGVKGGRARLILVDTQVCEFIQNTPAFHNTPMLMEAEERIAEYAPGARAPAYRQIINAIDNMTDIEQEKVAQFLSREGIRNFLARLDIDESA", "label.class": "FALSE"}
{"sequence": "MNALTAVQNNAVDSGQDYSGFTLTPSAQSPRLLELTFTEQTTKQFLEQVAEWPVQALEYKSFLRFRVAKILDDLCANQLQPLLLKTLLNRAEGALLINAVGVDDVKQADEMVKLATAVAHLIGRSNFDAMSGQYYARFVVKNVDNSDSYLRQPHRVMELHNDGTYVEEITDYVLMMKIDEQNMQGGNSLLLHLDDWEHLDNYFRHPLARRPMRFAAPPSKNVSKDVFHPVFDVDQQGRPVMRYIDQFVQPKDFEEGVWLSELSDAIETSKGILSVPVPVGKFLLINNLFWLHGRDRFTPHPDLRRELMRQRGYFAYASNHYQTHQ", "label.class": "FALSE"}
{"sequence": "MSKVKSITRESWILSTFPEWGSWLNEEIEQEQVAPGTFAMWWLGCTGIWLKSEGGTNVCVDFWCGTGKQSHGNPLMKQGHQMQRMAGVKKLQPNLRTTPFVLDPFAIRQIDAVLATHDHNDHIDVNVAAAVMQNCADDVPFIGPKTCVDLWIGWGVPKERCIVVKPGDVVKVKDIEIHALDAFDRTALITLPADQKAAGVLPDGMDDRAVNYLFKTPGGSLYHSGDSHYSNYYAKHGNEHQIDVALGSYGENPRGITDKMTSADMLRMGEALNAKVVIPFHHDIWSNFQADPQEIRVLWEMKKDRLKYGFKPFIWQVGGKFTWPLDKDNFEYHYPRGFDDCFTIEPDLPFKSFL", "label.class": "TRUE"}
{"sequence": "MSKSRLTVFSFVRRFLLRLMVVLAVFWGGGIALFSVAPVPFSAVMVERQVSAWLHGNFRYVAHSDWVSMDQISPWMGLAVIAAEDQKFPEHWGFDVASIEKALAHNERNENRIRGASTISQQTAKNLFLWDGRSWVRKGLEAGLTLGIETVWSKKRILTVYLNIAEFGDGVFGVEAAAQRYFHKPASKLTRSEAALLAAVLPNPLRFKVSSPSGYVRSRQAWILRQMYQLGGEPFMQQHQLD", "label.class": "TRUE"}
